Test system: UO-31 renal
assay.info: NCI-60 one-dose screen, 48 h
measurement.setup: 10 µM unless noted
This is part of a sample that, as a whole, favours compounds with a hit. Of some 83,000 tested, about 20% had one in any assay. Activity calls are given as the source filed them. The calls were made as follows: active = growth percent below 10; inactive = the rest.
Form entry, call: pick from true (1) = active, false (0) = inactive

# compound, answer.label
measured = [
    ("CCCCCCCCCCCCOC(=N)N(C)C", "false (0)"),
    ("CC1=NN(c2cccc(Cl)c2)C(=O)/C1=C\\c1cn(-c2nc(N3CCOCC3)nc(N3CCOCC3)n2)c2ccccc12", "false (0)"),
    ("COc1ccccc1CNCCCN1C(=O)c2ccc3c4c(ccc(c24)C1=O)C(=O)N(CCCNCc1ccccc1OC)C3=O", "true (1)"),
    ("CC1(C)C(O)NC(Cl)=C(C#N)C1(C#N)C#N (stereo not drawn)", "false (0)"),
    ("COc1ccc(-c2nc(SCC(C)C)nc(Nc3ccc(C(=O)O)cc3)c2C#N)cc1", "false (0)"),
    ("COc1cc2cn3c4ccc(O)cc4[nH]c(=O)c3c2cc1OC", "true (1)"),
]

Test call, this compound: CCC(C)[C@H](NC(=O)Nc1cc(C(F)(F)F)cc(C(F)(F)F)c1)C(=O)N[C@@H](Cc1cn(C)cn1)C(=O)OC (stereo partly drawn)
true (1)

====

Tested on: NCI-H226 lung
assay.info: NCI-60 one-dose screen, 48 h (100 = growth as untreated, 0 = no growth, -100 = all killed)
measurement.setup: 10 µM unless noted
About 83,000 compounds went through this panel and 20% of them were active in at least one assay; those are over-represented in the sample as a whole.
Where growth equals or exceeds 90%, the correct label is y; where it does not, the label is n.

# molecule, answer.label
rows = [
    ("Cc1ncc(C(=O)Nc2ccc(CN3CCN(C)CC3)c(C(F)(F)F)c2)cc1C#Cc1cnc(NC2CC2)c2ncccc12", "n"),
    ("NC(CSC(c1ccccc1)(c1ccccc1)c1ccccc1)C(=O)NCC(=O)O (stereo unspecified)", "y"),
    ("CCCCCCCCCCCCc1ccc([N+](CC)(CC)CC)cc1", "n"),
]

Assess whether reported growth for O=C(OCC1CC2(Cl)C(Cl)=C(Cl)C1(Cl)C2(Cl)Cl)C1C(C(=O)OCC2CC3(Cl)C(Cl)=C(Cl)C2(Cl)C3(Cl)Cl)C2(Cl)C(Cl)=C(Cl)C1(Cl)C2(Cl)Cl (stereo unspecified) sits at 90% or higher.
y

Say whether CCCCCCC(C)N(CC(C)(C)O)C(=O)c1ccc([N+](=O)[O-])cc1 (stereo unspecified) shows growth of 90% or more.
y

====

Recorded growth values for a group of compounds are listed next.
Test system: HT29 colon
assay.info: NCI-60 one-dose screen, 48 h (100 = growth as untreated, 0 = no growth, -100 = all killed)
measurement.setup: 10 µM unless noted
About 83,000 compounds went through this panel and 20% of them were active in at least one assay; those are over-represented in the sample as a whole.
Value expressed in %; do not type the unit.

Examples from the recorded data:
# compound, assay.endpoint, number
rows = [
    ("C/C(=N\\Nc1ccc(Cl)cn1)c1ccc2ccccc2n1", "growth", 16.3),
    ("COc1ccc(C2=NN(C(=O)c3cc(-c4ccc(C)cc4)nc4ccccc34)C(c3cc(-c4ccccc4)nn3-c3ccccc3)C2)cc1 (centres undefined)", "growth", 105),
    ("CC(=O)OCC1O[C@@H](OC(C)=O)[C@@H](NC(=O)NS(=O)(=O)c2ccccc2)C(OC(C)=O)[C@@H]1OC(C)=O (some centres undefined)", "growth", 111),
    ("N#Cc1c(N)nc(Nc2nc3ccccc3[nH]2)nc1-c1ccc(Cl)cc1", "growth", 95.4),
    ("CCOC(=O)CNS(=O)(=O)CC(=O)c1ccccc1", "growth", 80.1),
]

Given the compound COc1ccc(-c2nc(SCC(C)C)nc(Nc3ccc([N+](=O)[O-])cc3)c2C#N)cc1 , write its reported growth.
97.1

Quick one: give measured growth for C/C=C(/C)C(=O)OC1C=C(CO)C(=O)C(OC(=O)/C(C)=C\C)C1C(C)C (centres undefined)
-65.6

Indicate the recorded growth value for this compound: COc1ccc(-c2nc(SCC(C)C)nc(Nc3ccc(C(=O)O)cc3)c2C#N)cc1
94.7

Provide only the value of recorded growth for COc1cc(/C=C/C(=O)/C=C(/C=C/c2ccc(OC(C)=O)c(OC)c2)OB(F)F)ccc1OC(C)=O
61.4
